experimental-target: PDGF-BB (platelet-derived growth factor BB) (Homo sapiens) (UniProt P01127)
Sequence (P01127 82-190): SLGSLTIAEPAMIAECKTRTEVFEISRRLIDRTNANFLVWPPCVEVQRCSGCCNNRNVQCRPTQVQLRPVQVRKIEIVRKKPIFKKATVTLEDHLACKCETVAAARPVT
assay-protocol: filter
assay-context: NapdU at P; 2'-OMe 1,14,16
measured-attribute: pKd
For clarity, pKd is expressed as the negative log10 of concentration in mol/L.

Data request: What pKd value was documented for this sequence, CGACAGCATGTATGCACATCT [5169-4_110] ?
Data returned: 11.30

----------
Tested on: VEGF-165 (Homo sapiens), P15692-4
Sequence: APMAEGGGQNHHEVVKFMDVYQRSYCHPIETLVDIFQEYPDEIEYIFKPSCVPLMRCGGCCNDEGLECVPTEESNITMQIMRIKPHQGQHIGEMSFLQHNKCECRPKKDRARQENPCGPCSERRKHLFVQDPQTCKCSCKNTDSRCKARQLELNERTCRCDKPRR
assay-protocol: filter
assay-context: Nap-dU, Bn-dU, MBn-dU, 2'-OMe, C3; 6 Heg between parts
measured-attribute: Kd (nM)
Answer format: numeric, nM implied, no suffix.

Data request: Observed Kd on VEGF-165 (Homo sapiens), P15692-4 for CCGTTCAAGTGCTTGTAGGATTTAAATGGTTACGTTACCGCGTTTATAGCG [4149-8_413] , please.
Data returned: 0.063

----------
experimental-target: PDGF-BB (platelet-derived growth factor BB) (Homo sapiens) (UniProt P01127)
assay-protocol: filter
assay-context: Bn-dU; C3 at 20
pKd: −log10 of the molar value.
measured-attribute: pKd

Data request: Observed pKd on PDGF-BB (platelet-derived growth factor BB) (Homo sapiens) (UniProt P01127) for TTACGACTACGTTACACGCTTTATAGCG [4149-8_83] , please.
Data returned: < 8.00

----------
Test system: VEGF-121 (Homo sapiens), P15692-9
Sequence: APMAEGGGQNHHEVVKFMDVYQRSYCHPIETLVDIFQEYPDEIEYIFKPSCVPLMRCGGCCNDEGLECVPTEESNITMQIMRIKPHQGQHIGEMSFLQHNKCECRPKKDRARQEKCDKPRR
assay-protocol: filter
assay-context: Bn-dU, MBn-dU, Nap-dU, 2'-OMe, C3; 5 Heg between parts
measured-attribute: pKd
For clarity, pKd is expressed as the negative log10 of concentration in mol/L.

Data request: Observed pKd on VEGF-121 (Homo sapiens), P15692-9 for TTACGTTACCGCGTTTATAGCGCCGTTCAAGTGCTTGTAGGATTTAAATGG [4149-8_416] , please.
Data returned: 10.39

----------
Test system: VEGF-121 (Homo sapiens), P15692-9
Sequence: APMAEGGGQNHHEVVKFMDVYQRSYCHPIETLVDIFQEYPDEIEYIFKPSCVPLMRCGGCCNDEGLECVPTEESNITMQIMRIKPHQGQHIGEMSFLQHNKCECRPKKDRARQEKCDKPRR
assay-protocol: filter
assay-context: as 4867-31_192; PS 3' of 20; 3' inverted dT
measured-attribute: Kd (nM)
Answer format: numeric, nM implied, no suffix.

Data request: What Kd value was documented for this sequence, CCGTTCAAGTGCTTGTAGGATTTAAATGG [4867-31_423] ?
Data returned: 0.018

----------
experimental-target: PDGF-BB (platelet-derived growth factor BB) (Homo sapiens) (UniProt P01127)
assay-protocol: filter
assay-context: Bn-dU; C3 at 21
pKd: −log10 of the molar value.
measured-attribute: pKd

Data request: Observed pKd on PDGF-BB (platelet-derived growth factor BB) (Homo sapiens) (UniProt P01127) for TTACGACTACGTTACACGCGTTATAGCG [4149-8_84] , please.
Data returned: < 8.00
